# targetSystem: muscarinic receptors (3H-OXO-M site, cerebral cortex)
# procedureSummary: Radio ligand binding: displacement of muscarinic agonist 3H-Oxotremorine-M (3H-OXO-M), rat cerebral cortex membranes
# runConditions: 2 nM 3H-OXO-M, 2mM magnesium chloride, tris buffer pH 7.7, 37° C., 30 min
Structures can show the parent of a compound that is named as a salt.
We begin with a simple list: items and their reported IC50.

[
  {
    "molecule": "CO/N=C/C12CCCN(C1)C2 [Example E14, oxalate salt]",
    "IC50, nM": 109
  },
  {
    "molecule": "COCc1noc(C23CCCN(C2)C3)n1 [Example E9, oxalate salt]",
    "IC50, nM": 178
  },
  {
    "molecule": "Cc1nnc(C23CCCN(C2)C3)o1 [Example E13, oxalate salt]",
    "IC50, nM": 207
  }
]
